Below: a set of entries, each annotated with reported IC50.
Biological target: hPPARγ LBD (Homo sapiens)
Sequence (P37231 238-503 limits assumed): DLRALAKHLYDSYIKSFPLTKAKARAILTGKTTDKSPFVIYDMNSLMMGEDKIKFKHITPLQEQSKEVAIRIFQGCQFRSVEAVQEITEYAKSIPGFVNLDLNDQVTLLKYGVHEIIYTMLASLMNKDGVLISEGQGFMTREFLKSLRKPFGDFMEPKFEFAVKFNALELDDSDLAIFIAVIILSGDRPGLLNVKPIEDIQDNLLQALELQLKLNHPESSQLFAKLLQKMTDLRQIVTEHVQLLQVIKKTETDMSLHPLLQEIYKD
Experiment: TR-FRET competitive binding assay (LanthaScreen), displacement of a fluorescent pan PPAR agonist tracer
Settings: read-out: hPPARγ LBD ligand displacement IC50; TR-FRET, GST-tagged PPARγ-LBD, 10 concentrations 3 nM to 500 μM, triplicate

| compound | system tested | IC50 |
| --- | --- | --- |
| Cc1ccccc1C1C(C#N)=C(N)Oc2c1c(C)nn2-c1ccc(Cl)cc1 (centres unmarked) [10af] | hPPARγ LBD (Homo sapiens) | ≤ 1 µM |
| Cc1ccc(C)c(C2C(C#N)=C(N)Oc3[nH]nc(-c4ccccc4)c32)c1 (centres unmarked) [10g] | hPPARγ LBD (Homo sapiens) | > 100 µM |

Hello, the source for this data is paper PMC5330453, in case you need it.
